# System: HT29 colon
# methodNotes: NCI-60 one-dose screen, 48 h
# particulars: 10 µM unless noted
Compounds without any hit were thinned out: in the full panel of roughly 83,000, 20% have a hit. The source made the active and inactive calls. Rule for the calls: active = growth percent below 10; inactive = the rest.
Pick from yes (active), no (inactive) when you respond.

Outcome logged for Cc1cc(O)c2c(c1)C1OC(=O)CCCCCN1C1=C2C(=O)c2cccc(OC3CC(O)C(O)C(C)O3)c2C1=O (stereo not given) in this assay:
no

Outcome logged for `C[C@@H](Oc1cc(-n2cnc3ccc(CN4CCN(C)CC4)cc32)sc1C(N)=O)c1ccccc1C(F)(F)F` in this assay:
yes

Outcome logged for `CNC(=O)c1cc(COc2nnc(Nc3ccc(Cl)cc3)c3ccoc23)ccn1` in this assay:
no

Outcome logged for `O=C(O)c1ccc(Nc2ncc3c(n2)-c2ccc(Cl)cc2C(c2c(F)cccc2F)=NC3)cc1` in this assay:
no

Outcome logged for `N#Cc1c(NC(=O)c2cccs2)[n+]([O-])c2ccc(F)cc2[n+]1[O-]` in this assay:
no

Outcome logged for `ClCc1ccc(-c2ccc(Cn3cnc4c(Cl)nc(Cl)nc43)cc2)cc1` in this assay:
yes

Outcome logged for CC1(/C=N/NC(N)=S)NC(=O)NC1=O (stereo not given) in this assay:
no

Outcome logged for CCCCCCCC12Cc3ccccc3C1=Nc1c(c3ccccc3n1C)C2=O (stereo not given) in this assay:
no

Outcome logged for `Cc1ccc(-[n+]2c3cc(N)c(C)cc3nc3cc(C)c(Nc4ccccc4)cc32)cc1` in this assay:
yes

Outcome logged for `CN1CCN(c2nc(NCCNc3ccnc4cc(Cl)ccc34)c3ccccc3n2)CC1` in this assay:
yes

Outcome logged for `Cc1ccc(NC(=O)Nc2ccc(Nc3ncnc4sc5c(c34)CCOC5)cc2)cc1Cl` in this assay:
no

Outcome logged for `COc1ccc2c(OCc3nnc4ccc(-c5ccccc5)nn34)ccnc2c1` in this assay:
no

Outcome logged for O=C(c1ccccc1)C(c1ccccc1)N1CCOCC1 (stereo not given) in this assay:
no

Outcome logged for `C=CC(=O)Nc1cc(Nc2nccc(-c3cn(C)c4ccccc34)n2)c(OC)cc1N(C)CCN(C)C` in this assay:
yes

Outcome logged for `N#Cc1c(NC(=O)c2ccco2)[n+]([O-])c2cc(F)c(F)cc2[n+]1[O-]` in this assay:
no

Outcome logged for `CCc1cc2c(c3ccc(C(=O)CBr)cc13)CCCC2` in this assay:
no

Outcome logged for `CNC(=O)c1cc(Oc2ccc(NC(=O)Nc3cc(C(C)(C)C)nn3-c3ccc4ncccc4c3)c(F)c2)ccn1` in this assay:
yes

Outcome logged for `COc1cc(C(=O)NNC(=O)c2ccc(NC(=O)CCl)cc2)cc(OC)c1OC` in this assay:
no

Outcome logged for `CS(=O)(=O)N1CCN(Cc2cc3nc(-c4cccc5[nH]ncc45)nc(N4CCOCC4)c3s2)CC1` in this assay:
no

Outcome logged for `O=C(NC[C@H](O)CO)c1ccncc1Nc1ccc(I)cc1F` in this assay:
yes

----------
Kindly state growth for each of the entries shown.
# Test system: HT29 colon
# methodNotes: NCI-60 one-dose screen, 48 h (100 = growth as untreated, 0 = no growth, -100 = all killed)
# particulars: 10 µM unless noted
The panel holds about 83,000 compounds, 20% with a hit somewhere; the sample as a whole holds those more often.
Output spec: scalar in %, unitless text.

What value of growth has been reported for the following compound? `COC(=O)[C@@H](C)CNS(=O)(=O)N(c1cc(C(F)(F)F)cc(C(F)(F)F)c1)C1CCN(Cc2ccc(F)cc2)CC1`
19.5

What value of growth has been reported for the following compound? `CN1CCN(CCCOc2cccc3nc(Nc4ccc(Cl)c(C(F)(F)F)c4)ccc23)CC1`
-58.9

What value of growth has been reported for the following compound? `NC(=O)c1n[nH]n2c1nc(=O)c1c3c(sc12)CCCC3`
106

What value of growth has been reported for the following compound? `CCc1cnn2c(NCc3ccc[n+]([O-])c3)cc(N3CCCC[C@H]3CCO)nc12`
-29.3

What value of growth has been reported for the following compound? `CCN1CCN(c2cc(C)nc(N(CCCNc3ccnc4cc(Cl)ccc34)Cc3ccc4c(c3)OCO4)n2)CC1`
-12.2

What value of growth has been reported for the following compound? `Cc1cc(N(CCNc2ccnc3cc(Cl)ccc23)Cc2ccc3c(c2)OCO3)nc(N2CCN(C)CC2)n1`
0.16

What value of growth has been reported for the following compound? `CN1[C@@H]2CC[C@H]1/C(=C\c1ccccc1)C1=C2[C@@H](c2ccccc2)C(C#N)=C(N)O1`
67.7

What value of growth has been reported for the following compound? `O=c1sn(-c2cccc3ccccc23)c(=O)n1Cc1ccccc1`
100

What value of growth has been reported for the following compound? `Oc1ccc(C(c2ccc(O)cc2)C(Cl)(Cl)Cl)cc1`
110

What value of growth has been reported for the following compound? `N#CCNC(=O)c1ccc(-c2ccnc(Nc3ccc(N4CCOCC4)cc3)n2)cc1`
24.2

What value of growth has been reported for the following compound? `CCOc1cc2ncc(C#N)c(Nc3ccc(F)c(Cl)c3)c2cc1NC(=O)/C=C/CN(C)C`
-35.3

What value of growth has been reported for the following compound? `OCCNC(=S)Nc1ccc(-c2nc(N3C[C@H]4CC[C@@H](C3)O4)c3cccn3n2)cc1`
20.1

What value of growth has been reported for the following compound? `Cn1cnc2c(F)c(Nc3ccc(Br)cc3Cl)c(C(=O)NOCCO)cc21`
7.16

What value of growth has been reported for the following compound? COC(=O)[C@H](Cc1ccccc1)NC(=O)[C@@H](OC)[C@@H]1Cc2cc3cc(OC4CC(OC5CC(O)C(O)C(C)O5)C(O)C(C)O4)c(C)c(O)c3c(O)c2C(=O)[C@H]1OC1CC(OC2CC(OC3CC(C)(O)C(O)C(C)O3)C(O)C(C)O2)C(O)C(C)O1 (stereo partly drawn)
4.24

What value of growth has been reported for the following compound? `O=C(Cc1ccc(/C=C/C(=O)c2ncc[nH]2)cc1)Nc1ccc(S(F)(F)(F)(F)F)cc1`
-25.7

What value of growth has been reported for the following compound? `O=C(Nc1ccc(N=Nc2ccccc2)cc1)c1cccc2ccccc12`
35.4

What value of growth has been reported for the following compound? `Cn1ncc(Cl)c1-c1cc(C(=O)N[C@H](CN)Cc2cccc(F)c2)sc1Cl`
0.334

What value of growth has been reported for the following compound? O=C1CC(c2ccc3c(c2)OCO3)c2ncn(-c3ccc(Cl)cc3)c2N1 (stereo not drawn)
10.9

----------
Kindly state growth for each of the entries shown.
# Test system: RXF 393 renal
# methodNotes: NCI-60 one-dose screen, 48 h (100 = growth as untreated, 0 = no growth, -100 = all killed)
# particulars: 10 µM unless noted
This is part of a sample that, as a whole, favours compounds with a hit. Of some 83,000 tested, about 20% had one in any assay. Calls of active or inactive are those of the source. The calls were made as follows: active = growth percent below 10; inactive = the rest.

What value of growth has been reported for the following molecule? `O=C(c1c(F)ccc(NS(=O)(=O)N2CC[C@@H](F)C2)c1F)c1c[nH]c2ncc(-c3cnc(C4CC4)nc3)cc12`
10% (inactive)

What value of growth has been reported for the following molecule? `C=CC(=O)Nc1cccc(Oc2nc(Nc3ccc(N4CCN(C)CC4)cc3)nc3ccsc23)c1`
-83.9% (active)

What value of growth has been reported for the following molecule? `CCOc1cccc(/C=N/NC(=O)c2ccccc2Nc2ccnc(C(F)(F)F)c2)c1O`
23.9% (inactive)

What value of growth has been reported for the following molecule? `CC(=O)O[C@]1(C)C[C@H](O)[C@]2(O)C=CO[C@H](O[C@@H]3O[C@H](CO)[C@@H](O)[C@H](O)[C@H]3O)[C@@H]21`
109% (inactive)

What value of growth has been reported for the following molecule? `O=c1[nH]ccc2c(S(=O)(=O)N3CCCNCC3)cccc12`
57.8% (inactive)

What value of growth has been reported for the following molecule? C=CC(=O)N(C)[C@H]1C[C@H]2OC(C)(C1OC)n1c3ccccc3c3c4c(c5c6ccccc6n2c5c31)C(=O)NC4 (stereo partly drawn)
-90.1% (active)

What value of growth has been reported for the following molecule? `Cn1cc(-c2[nH]c3cc(NC(=O)[C@H](N)C4CCCCC4)cc4c3c2C=NNC4=O)cn1`
-85.1% (active)

What value of growth has been reported for the following molecule? `Cc1cc2c(-c3nc4ccccn4c3Nc3cccc4ccccc34)c(O)c(O)cc2c(O)c1-c1c(C)cc2c(-c3nc4ccccn4c3Nc3cccc4ccccc34)c(O)c(O)cc2c1O`
39.6% (inactive)

What value of growth has been reported for the following molecule? COc1ccc(COc2cc3oc(=O)c4cc(C(C)O)ccc4c3cc2OC)cc1 (stereo not drawn)
47.8% (inactive)

What value of growth has been reported for the following molecule? NC(=O)N1N=C(c2ccc(Cl)cc2)CC1c1cn(-c2ccccc2)nc1-c1ccc(Cl)cc1 (stereo not drawn)
-11.2% (active)

What value of growth has been reported for the following molecule? `Cc1cc(N2CCCC2)nc(N(CCCNc2ccnc3cc(Cl)ccc23)Cc2ccc3c(c2)OCO3)n1`
-66.1% (active)

What value of growth has been reported for the following molecule? `COc1cc2c(cc1OCCCN1Cc3ccc(OCCCCC(=O)N4CCC(CCN5CCCC5)CC4)cc3C1)N=C(N)C21CCCC1`
90.2% (inactive)

What value of growth has been reported for the following molecule? `CCN(CCO)CCCOc1ccc2c(Nc3cc(CC(=O)Nc4cccc(F)c4)[nH]n3)ncnc2c1`
86.1% (inactive)

What value of growth has been reported for the following molecule? CC(=O)C1CC(C)CCC1C(C)C (stereo not drawn)
107% (inactive)

What value of growth has been reported for the following molecule? `Cc1cc(C(=O)Nc2cc(Oc3ccc4nc(NC(=O)C5CC5)cn4n3)ccc2C)n(C)n1`
-15.1% (active)

What value of growth has been reported for the following molecule? `COc1cc2cc(NCc3ccc(F)cc3)nc(C)c2cc1OC`
59.7% (inactive)

What value of growth has been reported for the following molecule? `C=CC(=O)N1CCC[C@H](n2c(=O)n(-c3ccc(Oc4ccccc4)cc3)c3c(N)ncnc32)C1`
84.8% (inactive)

What value of growth has been reported for the following molecule? `C/C=C/C=N/NC(=S)Nc1ccccc1`
119% (inactive)
